measurementTarget: UniProt P12268
parameterMeasured: IC50 (µM)

Known results for molecules:
# molecule, uom, IC50
rows = [
    ("C=Cc1nc2c(ncn2C2O[C@@H](COP(=O)(O)O)[C@H](O)[C@@H]2O)c(=O)[nH]1 (stereo partly specified)", "µM", 1),
    ("O=c1[nH]c(CF)nc2c1ncn2C1O[C@@H](COP(=O)(O)O)[C@H](O)[C@@H]1O (stereo partly specified)", "µM", 1.2),
]

(1) O=c1[nH]c(CCl)nc2c1ncn2C1O[C@@H](COP(=O)(O)O)[C@H](O)[C@@H]1O (stereo partly specified)
(2) O=c1[nH]c(CO)nc2c1ncn2C1O[C@@H](COP(=O)(O)O)[C@H](O)[C@@H]1O (stereo partly specified)
Query string: Could you check which of 1 and 2 has a smaller value for IC50? When you have decided, please share the label of that item.
Result string: 1
(1: 1.32 µM, 2: 132 µM)

Values compiled from ChEMBL document CHEMBL1130017.
